# Method summary: Clearance in cynomolgus monkey at 2 mg/kg, iv or 10 mg/kg, po
# Type: ADME, organism-based, Macaca fascicularis
# Condition parameters: in vivo
Measured property: clearance (mL/min/kg)
Express your answer in mL/min/kg, writing the number without its unit.

Which clearance is reported for this compound? Cn1cnc2c(C#N)nc(-c3ccc(OCCC4CCN(Cc5ncco5)CC4)c(C(F)(F)F)c3)cc21 10

----------
# Study target: Cathepsin S (Homo sapiens, UniProt P25774)
# Sequence (P25774 whole entry): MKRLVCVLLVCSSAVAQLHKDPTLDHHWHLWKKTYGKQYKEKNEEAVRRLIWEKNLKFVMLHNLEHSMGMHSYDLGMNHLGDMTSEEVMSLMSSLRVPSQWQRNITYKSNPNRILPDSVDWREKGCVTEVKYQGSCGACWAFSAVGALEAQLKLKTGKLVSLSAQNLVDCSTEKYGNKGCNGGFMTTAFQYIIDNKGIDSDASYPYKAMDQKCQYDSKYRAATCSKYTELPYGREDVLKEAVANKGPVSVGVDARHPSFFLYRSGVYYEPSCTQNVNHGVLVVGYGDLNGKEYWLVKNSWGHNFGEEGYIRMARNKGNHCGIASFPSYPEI
# Method summary: Inhibition of human cathepsin S
Decision: IC50 beneath 10 nM gives 1; IC50 meeting or exceeding 10 nM gives -1.

{"Line notation": "CC(=O)N1CCC(CCOc2ccc(-c3cc4c(ncn4C)c(C#N)n3)cc2C(F)(F)F)CC1", "Label": -1}

is_below(IC50, 10 nM) for Cn1cnc2c(C#N)nc(-c3ccc(OCCC4CCN(S(C)(=O)=O)CC4)c(C(F)(F)F)c3)cc21 ? -1

Confirm or reject: IC50 of Cn1cnc2c(C#N)nc(-c3ccc(OCCC4CCN(Cc5ncco5)CC4)c(C(F)(F)F)c3)cc21 lies strictly below 10 nM 1

Strictly below 10 nM: is that where IC50 of CN1CCC(CCOc2ccc(-c3cc4c(ncn4C)c(C#N)n3)cc2C(F)(F)F)CC1 sits? 1

Here's an entry: Cc1noc(CN2CCC(CCOc3ccc(-c4cc5c(ncn5C)c(C#N)n4)cc3C(F)(F)F)CC2)n1 . Is its IC50 below 10 nM? -1

Hello, I'm reviewing records and need to know if IC50 of Cc1nnc(CN2CCC(CCOc3ccc(-c4cc5c(ncn5C)c(C#N)n4)cc3C(F)(F)F)CC2)o1 is below 10 nM. Could you check? -1

Is the reported IC50 for Cc1noc(C)c1CN1CCC(CCOc2ccc(-c3cc4c(ncn4C)c(C#N)n3)cc2C(F)(F)F)CC1 strictly below 10 nM? 1

----------
pIC50: −log10 of the molar value.
Measurement record for Cathepsin L2 (Homo sapiens); quantity recorded: pIC50.

Study these solved cases before continuing.
{"Line notation": "CN(C)CCCOc1ccc(-c2cc3c(ncn3C)c(C#N)n2)cc1C(F)(F)F", "Experimental result": "< 5.00"}
{"Line notation": "Cc1nnc(CN2CCC(CCOc3ccc(-c4cc5c(ncn5C)c(C#N)n4)cc3C(F)(F)F)CC2)o1", "Experimental result": "< 5.00"}
{"Line notation": "Cn1cnc2c(C#N)nc(-c3ccc(OCCC4CCN(Cc5ncco5)CC4)c(C(F)(F)F)c3)cc21", "Experimental result": "< 5.00"}
{"Line notation": "CN1CCC(CCOc2ccc(-c3cc4c(ncn4C)c(C#N)n3)cc2C(F)(F)F)CC1", "Experimental result": "< 5.00"}
{"Line notation": "Cn1cnc2c(C#N)nc(-c3ccc(OCCC4CCNCC4)c(C(F)(F)F)c3)cc21", "Experimental result": "< 5.00"}
{"Line notation": "CC(=O)N1CCC(CCOc2ccc(-c3cc4c(ncn4C)c(C#N)n3)cc2C(F)(F)F)CC1", "Experimental result": "< 5.00"}
{"Line notation": "Cc1noc(C)c1CN1CCC(CCOc2ccc(-c3cc4c(ncn4C)c(C#N)n3)cc2C(F)(F)F)CC1", "Experimental result": "< 5.00"}
{"Line notation": "Cn1cnc2c(C#N)nc(-c3ccc(OCCC4CCN(S(C)(=O)=O)CC4)c(C(F)(F)F)c3)cc21", "Experimental result": "< 5.00"}
{"Line notation": "CCN1CCN(CCCOc2ccc(-c3cc4c(ncn4C)c(C#N)n3)cc2C(F)(F)F)CC1", "Experimental result": "< 5.00"}
{"Line notation": "CN(C)C(=O)CN1CCC(CCOc2ccc(-c3cc4c(ncn4C)c(C#N)n3)cc2C(F)(F)F)CC1", "Experimental result": "< 5.00"}

Next compound, pIC50 to be filled in.
What measured pIC50 goes with Cc1noc(CN2CCC(CCOc3ccc(-c4cc5c(ncn5C)c(C#N)n4)cc3C(F)(F)F)CC2)n1 ? < 5.00

The measurements presented in this section are drawn from ChEMBL document CHEMBL1667802.
